Molecular target: T1, exemplary TAT frataxin fusion molecule (HIV-1, UniProt Q16595 1-210)
T1 construct: in the bridging assays biotinylated and sulfotagged forms were used; also called TAT-FXN fusion molecule; TAT FXN fusion molecule
T1 sequence: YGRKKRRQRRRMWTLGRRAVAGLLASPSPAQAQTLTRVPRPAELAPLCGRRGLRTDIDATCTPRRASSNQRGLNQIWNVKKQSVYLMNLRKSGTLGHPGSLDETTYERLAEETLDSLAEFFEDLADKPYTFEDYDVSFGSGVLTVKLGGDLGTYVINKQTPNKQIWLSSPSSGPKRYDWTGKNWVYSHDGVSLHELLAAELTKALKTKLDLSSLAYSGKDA
Experiment: PK sandwich ELISA in human plasma, antibody as capture, HRP anti-frataxin mAb detection
Measure Name: S/N at plasma conc. 51.2 ng/mL
Give bare numbers.

binder="antibody 12-3 (antibody, V domains shown, Rabbit monoclonal) VH: QSLEESGGDLVKPGASLTLTCTASGFSFSSGYWICWVRQAPGKGLEWIACIYTGDGDTSYASWAKGRFTISKTSSTTVTLQMTSLTVADTAIYFCARDTSGTFYYNLWGPGTLVAVSS VL: DVVMTQTPSPVSAPVGGTVTINCQASQNIYSNLAWYQQKPGQPPKLLIYGASTLASGVSSRFKGSRSGTEFTLTISDLECADAATYYCQSYVYSSSTADTFGGGTKVVVE" recorded_measurement=64.6

Below are some binders; for each one, tell me its S/N at plasma conc. 51.2 ng/mL.
1. antibody 12-10 (antibody, V domains shown, Rabbit monoclonal) VH: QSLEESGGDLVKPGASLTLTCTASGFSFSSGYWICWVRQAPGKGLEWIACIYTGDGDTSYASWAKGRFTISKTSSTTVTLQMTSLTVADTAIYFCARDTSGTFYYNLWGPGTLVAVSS VL: AAVLTQTPSSVSAAVGGTVTISCQSSESVYKTNYLSWFQKKPGQPPKLLIYDASTLASGVPSRFSGSGSGTQFTLTISDLECDDAATYYCAGGYSDDINAFGGGTEVEIK
2. antibody 12-8 (antibody, V domains shown, Rabbit monoclonal) VH: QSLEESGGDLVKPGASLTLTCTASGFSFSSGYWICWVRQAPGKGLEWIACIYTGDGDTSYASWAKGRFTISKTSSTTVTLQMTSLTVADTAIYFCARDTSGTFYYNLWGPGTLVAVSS VL: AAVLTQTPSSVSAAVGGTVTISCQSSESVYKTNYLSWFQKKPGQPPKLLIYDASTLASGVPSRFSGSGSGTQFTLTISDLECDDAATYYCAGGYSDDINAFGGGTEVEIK
3. antibody 10-5 (antibody, V domains shown, Rabbit monoclonal) VH: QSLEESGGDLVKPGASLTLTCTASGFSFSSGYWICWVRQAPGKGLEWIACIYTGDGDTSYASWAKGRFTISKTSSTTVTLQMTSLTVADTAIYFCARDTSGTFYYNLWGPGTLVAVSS VL: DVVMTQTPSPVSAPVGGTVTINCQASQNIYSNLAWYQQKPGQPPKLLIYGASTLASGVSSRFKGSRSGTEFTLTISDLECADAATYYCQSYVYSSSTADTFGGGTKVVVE
4. antibody 10-4 (antibody, V domains shown, Rabbit monoclonal) VH: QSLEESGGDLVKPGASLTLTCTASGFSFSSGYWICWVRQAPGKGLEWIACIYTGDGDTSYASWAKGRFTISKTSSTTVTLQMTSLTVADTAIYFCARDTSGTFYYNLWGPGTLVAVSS VL: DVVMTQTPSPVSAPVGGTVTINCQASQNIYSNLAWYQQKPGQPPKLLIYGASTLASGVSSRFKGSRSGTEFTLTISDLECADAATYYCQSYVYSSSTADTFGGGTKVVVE
5. antibody 12-1 (antibody, V domains shown, Rabbit monoclonal) VH: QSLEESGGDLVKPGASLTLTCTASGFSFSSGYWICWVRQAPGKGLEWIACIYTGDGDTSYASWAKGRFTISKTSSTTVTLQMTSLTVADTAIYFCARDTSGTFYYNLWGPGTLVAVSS VL: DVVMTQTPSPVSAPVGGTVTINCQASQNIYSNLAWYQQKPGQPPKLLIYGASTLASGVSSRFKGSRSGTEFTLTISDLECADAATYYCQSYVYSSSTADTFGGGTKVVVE

Ans.
1. 57
2. 56.9
3. 60.8
4. 48.3
5. 56.8
